Molecular target: Polyunsaturated fatty acid 5-lipoxygenase (Rattus norvegicus, UniProt P12527)
Sequence (P12527 whole entry): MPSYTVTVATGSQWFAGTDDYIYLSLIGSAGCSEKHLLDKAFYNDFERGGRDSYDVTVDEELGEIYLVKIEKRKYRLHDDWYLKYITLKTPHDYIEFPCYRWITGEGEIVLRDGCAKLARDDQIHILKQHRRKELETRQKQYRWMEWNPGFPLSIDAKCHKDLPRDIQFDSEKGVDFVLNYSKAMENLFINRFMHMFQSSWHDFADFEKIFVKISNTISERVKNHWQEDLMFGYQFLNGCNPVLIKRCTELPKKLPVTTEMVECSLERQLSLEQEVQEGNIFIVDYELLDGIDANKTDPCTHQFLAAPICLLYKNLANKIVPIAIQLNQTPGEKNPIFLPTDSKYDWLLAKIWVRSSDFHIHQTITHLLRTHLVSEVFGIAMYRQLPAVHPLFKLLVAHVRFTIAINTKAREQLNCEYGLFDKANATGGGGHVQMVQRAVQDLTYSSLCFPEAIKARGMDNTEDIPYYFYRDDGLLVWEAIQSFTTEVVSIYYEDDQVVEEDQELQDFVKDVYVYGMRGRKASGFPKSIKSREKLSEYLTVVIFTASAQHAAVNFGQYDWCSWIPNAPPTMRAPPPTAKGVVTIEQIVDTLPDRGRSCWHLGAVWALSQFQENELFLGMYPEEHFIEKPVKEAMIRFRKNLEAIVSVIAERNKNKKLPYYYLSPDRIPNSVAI
Assay: Inhibition of rat basophilic leukemia-1 (RBL-1) 5-lipoxygenase
Format: cell-based
pIC50: −log10 of the molar value.
property-name: pIC50

molecule	numeric-readout
CCCCCC(O)/C=C/C#CCCCCCCCCCC(=O)O (centres undefined)	4.18
CCCCC[C@H](O)/C=C/C=C\C/C=C\C/C=C\CCCCCC(=O)O	4.21
CCCCC[C@H](O)/C=C/C=C\C/C=C\C/C=C\CCCC(=O)OC	4.19
CCCCC[C@H](O)/C=C/C=C\C/C=C\C/C=C\CCCCCC(=O)OC	5.19

----------
Molecular target: Polyunsaturated fatty acid 5-lipoxygenase (Rattus norvegicus)
Sequence (whole entry): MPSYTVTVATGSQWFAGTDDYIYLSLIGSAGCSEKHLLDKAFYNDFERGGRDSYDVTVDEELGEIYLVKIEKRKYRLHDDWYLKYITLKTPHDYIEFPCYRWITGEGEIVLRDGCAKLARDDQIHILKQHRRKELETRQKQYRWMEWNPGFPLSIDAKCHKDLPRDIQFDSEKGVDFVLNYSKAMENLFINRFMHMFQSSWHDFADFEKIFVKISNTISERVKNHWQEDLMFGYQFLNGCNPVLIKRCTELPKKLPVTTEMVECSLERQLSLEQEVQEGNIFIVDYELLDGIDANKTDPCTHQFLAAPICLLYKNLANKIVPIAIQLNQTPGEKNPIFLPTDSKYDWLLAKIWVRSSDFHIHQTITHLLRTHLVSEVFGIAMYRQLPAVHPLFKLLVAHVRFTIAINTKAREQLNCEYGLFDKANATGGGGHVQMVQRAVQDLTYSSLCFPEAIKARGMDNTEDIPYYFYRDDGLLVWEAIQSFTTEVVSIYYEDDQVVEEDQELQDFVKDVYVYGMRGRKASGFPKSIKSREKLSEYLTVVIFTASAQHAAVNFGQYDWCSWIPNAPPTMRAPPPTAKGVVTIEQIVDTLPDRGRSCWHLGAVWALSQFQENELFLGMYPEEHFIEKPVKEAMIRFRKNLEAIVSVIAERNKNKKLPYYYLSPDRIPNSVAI
Assay: Inhibition of rat basophilic leukemia-1 (RBL-1) 5-Lipoxygenase at 100 uM
Assay type: cell-based
property-name: inhibition (%)

molecule	system	numeric-readout
COC(=O)CCCCC(O)/C=C/C=C/CCCCCCCCCC(=O)O (centres undefined)	Polyunsaturated fatty acid 5-lipoxygenase (Rattus norvegicus)	31
CCCCCC/C=C/C=C\CCCCCCCCCC(=O)O	Polyunsaturated fatty acid 5-lipoxygenase (Rattus norvegicus)	16
O=C(O)CCCCCCCCC/C=C\C=C\C(O)CCCCCO (centres undefined)	Polyunsaturated fatty acid 5-lipoxygenase (Rattus norvegicus)	46
CCCCCC(O)/C=C/C=C/CCCCCC(=O)O (centres undefined)	Polyunsaturated fatty acid 5-lipoxygenase (Rattus norvegicus)	17
CCCCCC1/C=C/C=C\CCCCCCCCCC(=O)O1 (centres undefined)	Polyunsaturated fatty acid 5-lipoxygenase (Rattus norvegicus)	42
CCCCCC(/C=C/C#CCCCCCCCCCC(=O)O)OC(C)=O (centres undefined)	Polyunsaturated fatty acid 5-lipoxygenase (Rattus norvegicus)	40
CCCCCC(O)/C=C\C=C/CCCCCCCCCC(=O)O (centres undefined)	Polyunsaturated fatty acid 5-lipoxygenase (Rattus norvegicus)	44
COC(=O)CCCCC(O)/C=C/C#CCCCCCCCCCC(=O)O (centres undefined)	Polyunsaturated fatty acid 5-lipoxygenase (Rattus norvegicus)	22
CCCCCC/C=C/C#CCCCCCCCCCC(=O)O	Polyunsaturated fatty acid 5-lipoxygenase (Rattus norvegicus)	48
CCCCCC(O)C#C/C=C/CCCCCCCCCC(=O)O (centres undefined)	Polyunsaturated fatty acid 5-lipoxygenase (Rattus norvegicus)	30
CCCCCC(O)/C=C/C#CCCCCCCC(=O)O (centres undefined)	Polyunsaturated fatty acid 5-lipoxygenase (Rattus norvegicus)	18
CCCCCC(O)c1cccc(OCCCCCCCC(=O)O)c1 (centres undefined)	Polyunsaturated fatty acid 5-lipoxygenase (Rattus norvegicus)	23
CCCCCC(O)/C=C/C=C/CCCCCCCCC(=O)O (centres undefined)	Polyunsaturated fatty acid 5-lipoxygenase (Rattus norvegicus)	39
CCCCCC(O)/C=C/C#CCCCCCCCC(=O)O (centres undefined)	Polyunsaturated fatty acid 5-lipoxygenase (Rattus norvegicus)	24
